target: binding partner of C5A (XPA23); assay: Biacore K-off
measurement-name: fold difference in affinity vs original
Write the numeric value and append its unit.

# annotated cases, reported fold difference in affinity vs original shown
binder | fold difference in affinity vs original
C5A (XPA23) VL N30Y (antibody, V domains shown) VH: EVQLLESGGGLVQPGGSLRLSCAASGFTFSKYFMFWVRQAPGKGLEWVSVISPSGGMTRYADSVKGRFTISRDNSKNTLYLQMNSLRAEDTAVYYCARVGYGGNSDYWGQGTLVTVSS VL: DIQMTQSPSSVSASVGDRLTIICRASQDIYRWLAWYQQTPGNAPKLLIHSATSLQSGVPSRFSGSGSGTDFTLTINSLQPEDFATYYCQQADSFPLTFGGGTKVEIK | 1.4 fold
C5A (XPA23) VL A51N (antibody, V domains shown) VH: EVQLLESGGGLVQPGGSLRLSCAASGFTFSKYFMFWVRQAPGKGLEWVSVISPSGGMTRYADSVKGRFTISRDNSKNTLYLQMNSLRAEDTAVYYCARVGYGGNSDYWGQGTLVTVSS VL: DIQMTQSPSSVSASVGDRLTIICRASQDINRWLAWYQQTPGNAPKLLIHSNTSLQSGVPSRFSGSGSGTDFTLTINSLQPEDFATYYCQQADSFPLTFGGGTKVEIK | 0.3 fold

Value of measured fold difference in affinity vs original for the entry C5A (XPA23) VL T52W (antibody, V domains shown) VH: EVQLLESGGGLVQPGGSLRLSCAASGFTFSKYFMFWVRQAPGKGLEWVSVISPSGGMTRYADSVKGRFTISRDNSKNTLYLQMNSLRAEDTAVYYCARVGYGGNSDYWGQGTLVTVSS VL: DIQMTQSPSSVSASVGDRLTIICRASQDINRWLAWYQQTPGNAPKLLIHSAWSLQSGVPSRFSGSGSGTDFTLTINSLQPEDFATYYCQQADSFPLTFGGGTKVEIK : 0.87 fold
